tested on: SN12C; test: NCI tumour cell line growth inhibition, 48 h
The source made the active and inactive calls. Cut-off read from the data, not from the text of the source: active = GI50 up to about 1.1 µM and inactive = higher.
Readout Name: GI50

These recorded examples may help you get a feel for the data.
C[N+](C)(N)Cc1nc(-c2ccc(Cl)cc2)no1	> 100 µM (inactive)
COc1ccc([S+]([O-])Cc2cc(OC)ccc2OC)cc1 (centres undefined)	> 100 µM (inactive)
NC(=O)N/N=C\c1ccccc1OCc1cccc(COc2ccccc2/C=N\NC(N)=O)n1	> 100 µM (inactive)
Cc1ccccc1/N=N/C(C(=O)c1ccccc1)C(=O)c1ccccc1	20 µM (inactive)
CC(C)N(C(C)C)P(OCCC#N)OC1CC(n2cnc3c(=O)[nH]cnc32)OC1COC(=O)NCCCCCCNC(=O)OC(C)(C)c1ccc(-c2ccccc2)cc1 (centres undefined)	23.7 µM (inactive)
CCN(CC)C(=O)CCNC(C)Cc1c[nH]c2ccccc12 (centres undefined)	> 100 µM (inactive)
COC1C(O)C(C)OC(OC2C(Oc3cccc4c(O)c5c(=O)oc6ccc(C)c7c(=O)oc(c34)c5c67)OC(C)C(O)C2O)C1O (centres undefined)	2.52 µM (inactive)
CN1CCN(C(=S)N(C(=O)c2cccs2)C2CCCCC2)CC1	> 100 µM (inactive)

Could you now look at the following compound, please?
Prompt: Fill in: GI50 on SN12C, entry C=[N+](CNC(=O)CNC(=O)C(Cc1ccccc1)NC(=O)OC(C)(C)C)C(=O)CNC(=O)C(Cc1ccccc1)NC(=O)OC(C)(C)C (centres undefined)
Completion: > 100 µM (inactive)
